System: cancer cell lines from the cancer cell line encyclopedia (CCLE)
Assay: Cell line profiling (CLiP) proliferation experiment
Format: cell-based
Conditions: Homo sapiens, IMR-32, IMR-32; read-out: Inflection Point
readoutName: EC50 (µM)

| compound | unitString | assayValue |
| --- | --- | --- |
| CC(C)[C@@]12C[C@@H](O)[C@@](C)(O1)[C@@H]1CC[C@@H](C)[C@H]1[C@@H]2OC(=O)/C=C/c1ccccc1 [Englerin B] | µM | 24.2 |

---

Test system: cancer cell lines from the cancer cell line encyclopedia (CCLE)
Assay: Cell line profiling (CLiP) proliferation experiment
Format: cell-based
Conditions: cell line MJ (haematopoietic_and_lymphoid_tissue); read-out: Crossing Point

| compound | IC50, µM |
| --- | --- |
| CC(C)[C@@]12C[C@@H](O)[C@@](C)(O1)[C@@H]1CC[C@@H](C)[C@H]1[C@@H]2OC(=O)/C=C/c1ccccc1 [Englerin B] | 9.13 |

---

System: cancer cell lines from the cancer cell line encyclopedia (CCLE)
Assay: Cell line profiling (CLiP) proliferation experiment
Format: cell-based
Conditions: Homo sapiens, HuP-T3, cell line HUP-T3; read-out: Crossing Point
pIC50: −log10 of the molar value.

| compoundStructure | pIC50 |
| --- | --- |
| CC(C)[C@@]12C[C@@H](O)[C@@](C)(O1)[C@@H]1CC[C@@H](C)[C@H]1[C@@H]2OC(=O)/C=C/c1ccccc1 | < 4.52 |

---

Tested on: cancer cell lines from the cancer cell line encyclopedia (CCLE)
Assay: Cell line profiling (CLiP) proliferation experiment
Assay type: cell-based
Conditions: Homo sapiens, SK-MES-1, SK-MES-1 cells; read-out: Inflection Point
pEC50: −log10 of the molar value.

| compound | pEC50 |
| --- | --- |
| CC(C)[C@@]12C[C@@H](O)[C@@](C)(O1)[C@@H]1CC[C@@H](C)[C@H]1[C@@H]2OC(=O)/C=C/c1ccccc1 [Englerin B] | 4.60 |

---

Tested on: cancer cell lines from the cancer cell line encyclopedia (CCLE)
Assay: Cell line profiling (CLiP) proliferation experiment
Assay type: cell-based
Conditions: KP-N-SI9s; read-out: Crossing Point
pIC50: −log10 of the molar value.
readoutName: pIC50

| compoundStructure | assayValue |
| --- | --- |
| CC(C)[C@@]12C[C@@H](O)[C@@](C)(O1)[C@@H]1CC[C@@H](C)[C@H]1[C@@H]2OC(=O)/C=C/c1ccccc1 | 4.66 |

---

Tested on: cancer cell lines from the cancer cell line encyclopedia (CCLE)
Assay: Cell line profiling (CLiP) proliferation experiment
Format: cell-based
Conditions: Homo sapiens, SK-BR-3, SK-BR-3 cells; read-out: Crossing Point
Protocol: Compound profiling experiment and data analysis was performed as previously described. Data was imported and plotted using the Tibco Spotfire DXP application. Lines were categorized as sensitive, intermediate and refractory as follows: Amax<-40 & Inflection Point <2 ~ Sensitive, Amax>-20 & Inflection Point >10 ~ Refractory, all else were called Intermediate. Cancer Cell line HG-U133 Plus 2 data was processed and normalized as described. […]
readoutName: IC50

| compoundStructure | readoutName | assayValue |
| --- | --- | --- |
| CC(C)[C@@]12C[C@@H](O)[C@@](C)(O1)[C@@H]1CC[C@@H](C)[C@H]1[C@@H]2OC(=O)/C=C/c1ccccc1 | IC50 | > 30 µM |
